# tgt: OCTN2 (organic cation/carnitine transporter 2) (Rattus norvegicus)
# Sequence (O70594 whole entry): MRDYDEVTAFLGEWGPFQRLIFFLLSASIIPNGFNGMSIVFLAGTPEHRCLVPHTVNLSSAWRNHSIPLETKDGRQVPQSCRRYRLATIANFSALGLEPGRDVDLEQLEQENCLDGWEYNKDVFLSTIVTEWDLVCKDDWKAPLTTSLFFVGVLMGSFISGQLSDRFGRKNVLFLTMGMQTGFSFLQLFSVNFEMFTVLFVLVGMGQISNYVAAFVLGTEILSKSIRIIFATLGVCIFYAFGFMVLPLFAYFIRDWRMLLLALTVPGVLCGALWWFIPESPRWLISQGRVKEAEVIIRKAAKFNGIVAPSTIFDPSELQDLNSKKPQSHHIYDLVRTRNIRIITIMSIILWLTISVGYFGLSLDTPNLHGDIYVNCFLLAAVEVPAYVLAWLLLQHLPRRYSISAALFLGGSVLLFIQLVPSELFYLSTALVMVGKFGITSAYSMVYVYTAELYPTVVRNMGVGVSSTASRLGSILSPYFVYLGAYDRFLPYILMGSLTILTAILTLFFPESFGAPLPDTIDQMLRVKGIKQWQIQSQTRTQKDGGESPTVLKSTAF
# measurement_description: TP_TRANSPORTER: inhibition of Carnitine uptake (Carnitine: 0.02 uM, Cefoselis: 2500 uM) in OCTN2-expressing HeLa cells
# Assay type: functional, cell-based
# Design: scale not given: the % may be the effect or the level left
# assay_context: human, probe carnitine (0.02 uM), read-out: Activity
experimental_readout: activity at 2500 µM (%)
Give the value in % but do not write % after it.

Briefly, activity at 2500 µM measured for CO/N=C(\C(=O)N[C@@H]1C(=O)N2C(C(=O)[O-])=C(C[n+]3ccc(N)n3CCO)CS[C@H]12)c1csc(N)n1 : 71
